# TEST_TARGET: Kappa-type opioid receptor (Homo sapiens)
# Sequence (P41145 whole entry): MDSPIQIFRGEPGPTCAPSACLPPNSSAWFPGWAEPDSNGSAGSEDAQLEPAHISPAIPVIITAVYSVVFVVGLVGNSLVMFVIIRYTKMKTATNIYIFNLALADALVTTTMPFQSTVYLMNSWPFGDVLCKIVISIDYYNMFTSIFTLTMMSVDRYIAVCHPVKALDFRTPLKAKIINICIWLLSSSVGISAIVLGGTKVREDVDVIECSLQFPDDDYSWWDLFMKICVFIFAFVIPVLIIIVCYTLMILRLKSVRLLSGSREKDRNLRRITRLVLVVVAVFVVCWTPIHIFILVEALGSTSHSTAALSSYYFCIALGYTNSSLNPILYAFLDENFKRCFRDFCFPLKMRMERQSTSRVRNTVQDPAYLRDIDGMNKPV
Structures can show the parent of a compound that is named as a salt.
Collected Ki values appear next to each entry.

{"COMPOUND": "COc1cccc([C@@H](C)NCCCc2ccccc2Cl)c1 [TECALCET HYDROCHLORIDE]", "Ki": "1.4 µM"}
{"COMPOUND": "Cc1nc2sccn2c(=O)c1CCN1CCC(=C(c2ccc(F)cc2)c2ccc(F)cc2)CC1", "Ki": "1.45 µM"}
{"COMPOUND": "C[C@H](NC[C@H](O)CP(=O)(O)CC1CCCCC1)c1ccc(Cl)c(Cl)c1", "Ki": "1.11 µM"}
